The reported measurements were obtained from patent US20230068663A1.

Target: T1, LILRB2 chimeric receptor on LILRB2 reporter cells (extracellular domain of LILRB2 fused with … (UniProt Q8N423 22-460))
T1 construct: extracellular domain;domain: transmembrane/intracellular domains; associates with DAP12; also called LILRB2-expressing reporter cells
Assay: flow cytometry, reporter cells
Experimental: FIG. 29. Binding of LILRB2 antibodies on reporter cell line expressing ectodomain of LILR family proteins on cell surface. Bound antibodies were detected with anti-human Fc-specific secondary antibody (2nd Ab) conjugated to AF647. […] All incubations were performed for 30 minutes at 4° C. Data shown is mean fluorescence intensity after sample acquisition in flow cytometer.
valueKind: MFI
Answer with the value's number alone.

MFI for B2-15 (antibody, V domains shown, also called B-15; B2-15_HC) VH: EVQLVQSGAEVKKSGASVKVSCKSSGYTFTNYGISWVRQAPGQGLEWMGWISGDAGDTKFAQKFQGRVTMTTDTSTTTTYMELRSLRSDDTAVYYCARDGEYIPMFRGFDNYYGLDVWGQGTLVSVSS VL: QSVLTQPPSASATPGQRVTISCSGRNANIGSNPVNWYQQLPGTAPRLVMYSNNQRPSGVPDRFSGSKSGTSASLAISGLQSEDEADYYCEGWDDSLNGYVFGTGTKVTVL is 910
